target: kappa opioid receptor (OPRK1) (Homo sapiens (Human), UniProt P41145); test: OPRK1 antagonist assay (b-arrestin-2-TEV / b-lactamase reporter cell line, EC80 U-50488 challenge); type: cell-based; conditions: read-out: IC50 nM (% inhib if other than 50%); antagonist mode vs EC80 U-50488; NA = not active at concentrations up to 10 μM
Sequence (P41145 whole entry): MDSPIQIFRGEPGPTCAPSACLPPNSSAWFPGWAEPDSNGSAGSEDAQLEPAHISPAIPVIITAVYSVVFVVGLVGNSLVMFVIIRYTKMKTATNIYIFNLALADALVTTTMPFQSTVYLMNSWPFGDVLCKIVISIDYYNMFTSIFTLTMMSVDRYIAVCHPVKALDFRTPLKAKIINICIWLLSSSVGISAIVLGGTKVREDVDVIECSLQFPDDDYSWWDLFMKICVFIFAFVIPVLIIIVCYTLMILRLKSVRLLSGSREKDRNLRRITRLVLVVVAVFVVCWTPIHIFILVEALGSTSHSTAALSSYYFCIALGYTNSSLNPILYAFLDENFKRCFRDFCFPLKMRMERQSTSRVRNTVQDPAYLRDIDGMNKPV
readout type: IC50 (nM)
Answer format: numeric, nM implied, no suffix.

{"compound": "CO[C@H]1CN(c2nc3ccc(C)cc3cc2-c2noc(C)n2)CC[C@H]1NC1CCCCC1", "system": "kappa opioid receptor (OPRK1) (Homo sapiens (Human), UniProt P41145)", "IC50 / nM": 0.99}
{"compound": "CCOC(=O)c1cccnc1N1CCC(NC2CCCCC2)C1 (stereo not drawn)", "system": "kappa opioid receptor (OPRK1) (Homo sapiens (Human), UniProt P41145)", "IC50 / nM": 1200}
{"compound": "COC1CN(c2ncc(C)cc2-c2cn(C)nn2)CCC1NC1CCCCC1 (stereo not drawn)", "system": "kappa opioid receptor (OPRK1) (Homo sapiens (Human), UniProt P41145)", "IC50 / nM": 2960}
{"compound": "Cc1noc(-c2cc3ccc(Cl)cc3nc2N2CCC(NC3CCCCC3)CC2)n1", "system": "kappa opioid receptor (OPRK1) (Homo sapiens (Human), UniProt P41145)", "IC50 / nM": 19}
{"compound": "COC1CCCCC1NC1CCN(c2nc3ccccc3cc2-c2nc(C)no2)CC1CO (stereo not drawn)", "system": "kappa opioid receptor (OPRK1) (Homo sapiens (Human), UniProt P41145)", "IC50 / nM": 59}
{"compound": "COC1CN(c2ncc(C)cc2-c2nc(C)no2)CCC1NC1CCCCC1 (stereo not drawn)", "system": "kappa opioid receptor (OPRK1) (Homo sapiens (Human), UniProt P41145)", "IC50 / nM": 253}
{"compound": "Cc1cnc(N2CC[C@@H](NC3CCCCC3)[C@H](O)C2)c(-c2ncccn2)c1", "system": "kappa opioid receptor (OPRK1) (Homo sapiens (Human), UniProt P41145)", "IC50 / nM": 566}
{"compound": "COC1CN(c2nc3ccc(C)cc3cc2-c2nc(C)no2)CCC1NC1CCCCC1F (stereo not drawn)", "system": "kappa opioid receptor (OPRK1) (Homo sapiens (Human), UniProt P41145)", "IC50 / nM": 9}
{"compound": "Cc1ccc2nc(N3CCC(NCC4CCCCC4O)CC3)c(-c3nc(C)no3)cc2c1 (stereo not drawn)", "system": "kappa opioid receptor (OPRK1) (Homo sapiens (Human), UniProt P41145)", "IC50 / nM": 3.1}
{"compound": "COC(=O)c1cc(Br)cnc1N1CCC(NC2CCCCCC2)C(CO)C1 (stereo not drawn)", "system": "kappa opioid receptor (OPRK1) (Homo sapiens (Human), UniProt P41145)", "IC50 / nM": 58}

Request the reported IC50 associated with "CO[C@H]1CN(c2ncc(C)cc2-c2nc(C)no2)CC[C@H]1NC1CCCCC1"
25

Request the reported IC50 associated with "Cc1ccc2nc(N3CCC(NC4CCOCC4)CC3)c(-c3ccc(C)o3)cc2c1"
331

Request the reported IC50 associated with COC(=O)c1cc(Br)cnc1N1CC2C(C1)C2NC1CCCCC1 (stereo not drawn)
21000

Request the reported IC50 associated with "CO[C@H]1CN(c2nnc(C)cc2C(=O)OC(C)C)CC[C@H]1NC1CCCCC1"
10

Request the reported IC50 associated with "CCc1noc(-c2cc3cc(C)ccc3nc2N2CCC(NC3CCOCC3)CC2)n1"
47

Request the reported IC50 associated with COC(=O)c1cc(Br)cnc1N1CCC(O)C(NC2CCCCC2)C1 (stereo not drawn)
2800

Request the reported IC50 associated with COC1CN(c2nc3ccccc3cc2-c2nc(C)no2)CCC1NCC(C)C (stereo not drawn)
45

Request the reported IC50 associated with "Cc1noc(-c2cc(C)c(C)nc2N2CC[C@H](NC3CCCCC3)[C@@H](O)C2)n1"
32

Just for reference, patent US20250346584A1 is where these values come from.
